# experiment notes: protein stability index of a GFP-peptide fusion (yeast GPS) (PSI 1-4); higher = more stable; sorted into four equal gates, so the index is relative within each strain
# measurement context: ubr1∆
recorded metric: protein stability index

Just so you know, measured protein stability index for YMEQGNNKIITLVKGPK [SKI6] came out at 2.96

Just so you know, measured protein stability index for SSSDFRLHYYPKDPSNV [BRR2] came out at 3.15

Just so you know, measured protein stability index for KPHGLAARVDIGQIIFS [RPL10] came out at 2.15

Just so you know, measured protein stability index for DPLNSNIFSEAVKNKYN [PRP28] came out at 2.92

Just so you know, measured protein stability index for PETGDHVVGRIAEVGNK [RRP4] came out at 3.08

Just so you know, measured protein stability index for DDHSQVINPQQLLKGLS [DSN1] came out at 3.01

Just so you know, measured protein stability index for LKNKREIYRISFQLSKI [RPS9B] came out at 3.38

Just so you know, measured protein stability index for RSILQSLNPALQEKIST [SWI1] came out at 2.71
